Tested on: adenylyl cyclase in membranes of A431 cells
testSummary: cells
assayContext: Homo sapiens, A-431, read-out: EC50, adenylyl cyclase stimulation, control intact cells
assayMetric: pEC50
# pEC50: negative log10 of molar concentration; output just the value

Challenge: Look up pEC50: CC(C)NC[C@H](O)c1ccc(O)c(O)c1 [isoproterenol, (−)-isoproterenol]
Response given: 6.70

* * *

Known log10 IC50 of a selection of substances
assaySystem: βAR kinase (Bos taurus)
Construct: βAR kinase was purified from bovine cerebral cortex; from tissue; host or cells: bovine cerebral cortex
Sequence (P21146 1-689): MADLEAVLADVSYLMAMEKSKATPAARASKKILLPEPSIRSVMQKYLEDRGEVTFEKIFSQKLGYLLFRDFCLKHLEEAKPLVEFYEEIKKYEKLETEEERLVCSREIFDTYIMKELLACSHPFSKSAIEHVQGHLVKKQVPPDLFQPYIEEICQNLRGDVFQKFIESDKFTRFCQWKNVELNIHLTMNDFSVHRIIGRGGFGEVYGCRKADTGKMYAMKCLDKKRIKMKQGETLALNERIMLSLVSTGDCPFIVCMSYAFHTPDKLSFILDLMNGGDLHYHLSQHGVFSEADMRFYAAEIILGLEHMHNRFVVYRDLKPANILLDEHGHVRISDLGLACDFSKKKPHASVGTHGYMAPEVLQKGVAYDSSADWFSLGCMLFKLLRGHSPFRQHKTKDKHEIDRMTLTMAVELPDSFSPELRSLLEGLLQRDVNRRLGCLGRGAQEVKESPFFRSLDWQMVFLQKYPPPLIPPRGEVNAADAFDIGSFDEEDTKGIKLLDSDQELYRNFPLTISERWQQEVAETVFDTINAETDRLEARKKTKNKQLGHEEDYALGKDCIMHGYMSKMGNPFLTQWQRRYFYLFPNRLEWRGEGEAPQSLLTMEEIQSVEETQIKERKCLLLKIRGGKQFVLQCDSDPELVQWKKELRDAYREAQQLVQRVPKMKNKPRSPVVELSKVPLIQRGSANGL
testSummary: Inhibition of β2AR phosphorylation by βAR kinase by synthetic peptides (Example III)
Format: biochemical, bovine
assayContext: β2AR as substrate; read-out: IC50 (μM), first intracellular loop peptides as inhibitors of βAR kinase
No end group written: not given here.
Values reflect log10 of reported IC50 (µM).

Challenge: Value lookup for log10 IC50; key = AIAAFEALQTVTNYF [β2AR (57-71, K → A, R → A)]
Response given: 1.94
